Source listed as the Human Domainome abundance scans (Beltran et al. 2025).

B1: Max-interacting protein 1, residues 70 to 120; numbered along this chain, P50539 (parent)
chain: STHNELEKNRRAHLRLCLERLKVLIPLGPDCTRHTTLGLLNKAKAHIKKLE

variants of: B1; assay: abundance fitness (aPCA) (normalised: wild type 0, dead -1); higher = more abundant; growth selection in yeast, the domain comes from the species named; settings: Homo sapiens
assay readout: abundance fitness

[[record]]
variant_description = "K49V"
assay_readout = "abundance fitness"
data_value = -0.618

[[record]]
variant_description = "E19D"
assay_readout = "abundance fitness"
data_value = -0.252

[[record]]
variant_description = "R11I"
assay_readout = "abundance fitness"
data_value = -0.252

[[record]]
variant_description = "T36Q"
assay_readout = "abundance fitness"
data_value = -0.199

[[record]]
variant_description = "K22N"
assay_readout = "abundance fitness"
data_value = -0.572

[[record]]
variant_description = "I25W"
assay_readout = "abundance fitness"
data_value = 0.319

[[record]]
variant_description = "E7V"
assay_readout = "abundance fitness"
data_value = -0.185

[[record]]
variant_description = "K42G"
assay_readout = "abundance fitness"
data_value = -0.421

[[record]]
variant_description = "I25N"
assay_readout = "abundance fitness"
data_value = 0.169

[[record]]
variant_description = "A45K"
assay_readout = "abundance fitness"
data_value = -0.057

[[record]]
variant_description = "G28K"
assay_readout = "abundance fitness"
data_value = 0.362

[[record]]
variant_description = "K42R"
assay_readout = "abundance fitness"
data_value = -0.069

[[record]]
variant_description = "K22T"
assay_readout = "abundance fitness"
data_value = -0.835

[[record]]
variant_description = "L16Q"
assay_readout = "abundance fitness"
data_value = 0.16

[[record]]
variant_description = "C17S"
assay_readout = "abundance fitness"
data_value = -0.641

[[record]]
variant_description = "P26I"
assay_readout = "abundance fitness"
data_value = -1.18

[[record]]
variant_description = "T35R"
assay_readout = "abundance fitness"
data_value = 0.225

[[record]]
variant_description = "E5Y"
assay_readout = "abundance fitness"
data_value = -0.069

[[record]]
variant_description = "I47Y"
assay_readout = "abundance fitness"
data_value = -0.137

[[record]]
variant_description = "K8F"
assay_readout = "abundance fitness"
data_value = -0.236

[[record]]
variant_description = "T2C"
assay_readout = "abundance fitness"
data_value = -0.415

[[record]]
variant_description = "R15A"
assay_readout = "abundance fitness"
data_value = -0.211

[[record]]
variant_description = "K42F"
assay_readout = "abundance fitness"
data_value = -0.256

[[record]]
variant_description = "S1Y"
assay_readout = "abundance fitness"
data_value = -0.444

[[record]]
variant_description = "H3Q"
assay_readout = "abundance fitness"
data_value = -0.023

[[record]]
variant_description = "E7Q"
assay_readout = "abundance fitness"
data_value = -0.169

[[record]]
variant_description = "P29W"
assay_readout = "abundance fitness"
data_value = 0.519

[[record]]
variant_description = "T32W"
assay_readout = "abundance fitness"
data_value = 0.033

[[record]]
variant_description = "V23C"
assay_readout = "abundance fitness"
data_value = 0.287

[[record]]
variant_description = "L39C"
assay_readout = "abundance fitness"
data_value = -0.588

[[record]]
variant_description = "E7L"
assay_readout = "abundance fitness"
data_value = -0.109

[[record]]
variant_description = "T32P"
assay_readout = "abundance fitness"
data_value = -0.303

[[record]]
variant_description = "K42I"
assay_readout = "abundance fitness"
data_value = -0.284

[[record]]
variant_description = "L16P"
assay_readout = "abundance fitness"
data_value = -0.126

[[record]]
variant_description = "A43T"
assay_readout = "abundance fitness"
data_value = -0.339

[[record]]
variant_description = "L21C"
assay_readout = "abundance fitness"
data_value = -0.503

[[record]]
variant_description = "G28L"
assay_readout = "abundance fitness"
data_value = -0.142

[[record]]
variant_description = "R15F"
assay_readout = "abundance fitness"
data_value = -0.269

[[record]]
variant_description = "H13C"
assay_readout = "abundance fitness"
data_value = -0.509

[[record]]
variant_description = "L18M"
assay_readout = "abundance fitness"
data_value = -0.405

[[record]]
variant_description = "L21N"
assay_readout = "abundance fitness"
data_value = -1.17

[[record]]
variant_description = "L24Q"
assay_readout = "abundance fitness"
data_value = -0.569

